Tested on: MDA-MB-231
ASSAY COMMENT: NCI tumour cell line growth inhibition, 48 h
The source made the active and inactive calls. No stated cut-off is given here; in the data, active = GI50 up to about 1.1 µM and inactive = higher.
MEASURE: GI50

O=C1N/C(=N/N=C/c2ccccc2)N/C1=C\c1c[nH]c2ccccc12	42.9 µM (inactive)
O=C(c1ccccc1)N1N=C(C(F)(F)F)CC1(O)C(F)(F)F (stereo not given)	> 100 µM (inactive)
COc1cc(Cn2c(=S)ss/c2=N\C(=S)N(C)C)cc(OC)c1OC	15.1 µM (inactive)
S=C(NN=C1NCCCCN1)Nc1ccc(Cl)cc1	21 µM (inactive)

Data request: Field request: GI50 | item: O=[N+]([O-])/C(C(Cl)=C(Cl)Cl)=C(\Nc1cccc2cccnc12)SCc1ccccc1
Data returned: 27.3 µM (inactive)

Data request: Field request: GI50 | item: CCOC(=O)C(=CNC(=S)N/N=C1\C(=O)Nc2ccccc21)C(=O)OCC
Data returned: > 100 µM (inactive)

Data request: Field request: GI50 | item: [O-][S+](Nc1ccccc1)c1ccc(Cl)cc1 (stereo not given)
Data returned: > 100 µM (inactive)

---

The following compounds are listed with their measured GI50 values.
System: HT-29
ASSAY COMMENT: NCI tumour cell line growth inhibition, 48 h
The source made the active and inactive calls. Rule as the data show it: active = GI50 up to about 1.1 µM and inactive = higher.

CC(C)c1cccc(C(C)C)c1NC(=S)NN=C1C=C(C(C)(C)C)C(=O)C(C(C)(C)C)=C1	33 µM (inactive)
COc1ccc2c3c(coc13)C(CCC(=O)O)CC2 (stereo not drawn)	> 100 µM (inactive)
CC1OC(OC2C(O[C@H]3CC[C@@]4(C)C(=CC[C@H]5[C@@H]6C[C@@H]7O[C@]8(CC[C@@H](C)CO8)[C@@H](C)[C@@H]7[C@@]6(C)CC[C@@H]54)C3)OC(CO)C(O)C2OC2OC(CO)C(O)C(O)C2O)C(O)C(O)C1O (stereo partly drawn)	14.7 µM (inactive)
OCCCCn1cc(Cn2ncc3c(SCc4ccccc4)ncnc32)nn1	40.5 µM (inactive)

Data request: Field request: GI50 | item: CCN(CC)CCNC(=O)C1COc2ccc(-c3cc(=O)c4ccccc4o3)cc2O1 (stereo not drawn)
Data returned: 14.9 µM (inactive)

Data request: Field request: GI50 | item: Cc1ccc(/S(Cc2ccccc2)=N\S(=O)(=O)c2ccc(C)cc2)cc1 (stereo not drawn)
Data returned: > 100 µM (inactive)

Data request: Field request: GI50 | item: C[C@H]1C=C2[C@@H]3CC(C)(C(=O)O)CC[C@]3(C)CC[C@]2(C)[C@]2(C)CC[C@H]3C(C)(C)[C@@H](OC(=O)c4cccc5c(=O)c6ccccc6[nH]c45)CC[C@]3(C)[C@@H]12 (stereo partly drawn)
Data returned: > 100 µM (inactive)

Data request: Field request: GI50 | item: O=C(O)/C=C\C(=O)Nc1ccccn1
Data returned: > 100 µM (inactive)

---

The following molecules are listed with their measured GI50 values.
System: SR
ASSAY COMMENT: NCI tumour cell line growth inhibition, 48 h
The source made the active and inactive calls. No stated cut-off is given here; in the data, active = GI50 up to about 1.1 µM and inactive = higher.

These recorded examples may help you get a feel for the data.
CCCCn1c(C)c(C(=O)OCC)s/c1=N/Nc1nc2ccccc2nc1-c1ccccc1	> 100 µM (inactive)
Cn1c(CO)ccc1-c1ccc(-c2ccc[se]2)[se]1	30.3 µM (inactive)
O=c1[nH]c(=O)n(COCc2ccccc2)c2ccccc12	37 µM (inactive)

Let us move to another entry and its GI50.
Data request: Field request: GI50 | item: CCNC(=S)N/N=C(\C)c1cccc(C)n1
Data returned: > 100 µM (inactive)

---

System: SW-620
ASSAY COMMENT: NCI tumour cell line growth inhibition, 48 h
Active and inactive are the calls of the source. Rule as the data show it: active = GI50 up to about 1.1 µM and inactive = higher.
MEASURE: GI50

Cc1nc(-n2nc(-c3ccccc3)cc2-c2ccccc2)sc1C(/C=C/c1ccc([N+](=O)[O-])cc1)=N/NC(=O)c1ccncc1	26.7 µM (inactive)
COc1cc2c(cc1OC)C(Cl)C(c1ccc(Br)cc1)=C2Cl (stereo unspecified)	9.51 µM (inactive)
COC(=O)c1c(O)ccc2c1c1cc3ccccc3cc1n2Cc1cc(OC)cc(OC)c1	3.61 µM (inactive)
N#CC(c1ccc(Cl)cc1)c1c(=O)[nH]c2ccc(N)cc2[n+]1[O-] (stereo unspecified)	> 100 µM (inactive)
CSc1nc(C#N)c(N)n1C	> 100 µM (inactive)
S=C(Nc1ccccc1)c1ccc(CN2CCCCC2)s1	16.4 µM (inactive)
C=CCn1c(S)nnc1C12CC3CC(CC(C3)C1)C2	> 100 µM (inactive)
CCOC(=O)C1=C(Nc2cccc3ccccc23)OCC1=O	> 100 µM (inactive)

Data request: Field request: GI50 | item: [O-][S+]1Nc2c(Cl)cc(Cl)c3c(Cl)cc(Cl)c(c23)N1
Data returned: 37.2 µM (inactive)

Data request: Field request: GI50 | item: CC(O)C1(CNc2cc(Cl)nc(N)n2)CC(CCc2ccccc2)C1 (stereo unspecified)
Data returned: 15.8 µM (inactive)

Data request: Field request: GI50 | item: CC(C)(C)C1CCC2(CC1)CCN(CCCN1CCOCC1)CC2
Data returned: > 42.8 µM (inactive)

---

System: Malme-3M
ASSAY COMMENT: NCI tumour cell line growth inhibition, 48 h
Calls of active or inactive are those of the source. No stated cut-off is given here; in the data, active = GI50 up to about 1.1 µM and inactive = higher.
// classify into active, inactive

CC[C@@H](C(=O)[C@@H](C)[C@@H](O)[C@H](C)CCc1ccc(C)c(O)c1C(=O)O)[C@H]1O[C@](CC)([C@H]2CC[C@](O)(CC)[C@H](C)O2)C[C@@H]1C [LASALOCID A SODIUM]	active
OC(CCN1CCN(CCOC(c2ccc(F)cc2)c2ccc(F)cc2)CC1)c1ccc(Br)cc1 (stereo not given)	inactive
O=C(/C=C/c1ccc[nH]1)c1ccccc1	inactive
COCCCNC(=O)C1C(=O)C(=O)N(CCCOC)C1=O (stereo not given)	inactive
CC12CC(=O)C3C(CCC4=CC(=O)CCC43C)C1CC=C2CC(=O)O (stereo not given)	inactive

Data request: What did this assay record as the result for O=[N+]([O-])/C=C/c1ccc2ccccc2c1 ?
Data returned: inactive

Data request: What did this assay record as the result for Cc1cc(=O)oc2cc(OC(=O)N(CCCl)CCCl)ccc12 ?
Data returned: inactive

Data request: What did this assay record as the result for COc1ncc(C#CC(=O)c2ccccc2)c(OC)n1 ?
Data returned: inactive

Data request: What did this assay record as the result for COc1cccc2c1C(=O)c1c(O)c3c(c(O)c1C2=O)CC(O)(C(O)CO)CC3OC1CC2C(OC3COCC(C#N)N32)C(C)O1 (stereo not given) ?
Data returned: active

Data request: What did this assay record as the result for CC(C)(C)OC(=O)NCC(CNC(=O)OC(C)(C)C)c1nc(C(N)=O)cs1 ?
Data returned: inactive

---

The following molecules are listed with their measured GI50 values.
System: UO-31
ASSAY COMMENT: NCI tumour cell line growth inhibition, 48 h
Calls of active or inactive are those of the source. Rule as the data show it: active = GI50 up to about 1.1 µM and inactive = higher.

Data request: Field request: GI50 | item: COC(=O)c1cc(O)ccc1NC(=O)c1ccc(O)cc1
Data returned: > 100 µM (inactive)

---

System: PC-3
ASSAY COMMENT: NCI tumour cell line growth inhibition, 48 h
Activity calls are given as the source filed them. Cut-off read from the data, not from the text of the source: active = GI50 up to about 1.1 µM and inactive = higher. Where a SMILES comes first, the peptide text is derived from it. Bridges are numbered along the chain shown (N, C = ends). The star is where a group is joined. Cbz = O=C(OCc1ccccc1)*
The following molecules are listed with their measured GI50 values.

These recorded examples may help you get a feel for the data.
CCOC(=O)c1csc(NC(=O)CN2CCOCC2)n1	> 100 µM (inactive)
CCOC(=O)C(=CNC(=S)N/N=C1\C(=O)Nc2ccccc21)C(=O)OCC	> 100 µM (inactive)
CO[C@@]12C[C@@H](CNC(=O)c3cc(Br)c[nH]3)O[C@@H]1NC(=O)N2	> 100 µM (inactive)
Cc1c2c(n3c(nc4ccccc43)c1C#N)NCC2	> 10 µM (inactive)
Cn1c(CO)ccc1-c1ccc(-c2ccc[se]2)[se]1	> 90.4 µM (inactive)
OCCCCn1cc(Cn2ncc3c(SCc4ccccc4)ncnc32)nn1	61.2 µM (inactive)
O=C(c1ccccc1)N1N=C(C(F)(F)F)CC1(O)C(F)(F)F (configuration not stated)	> 100 µM (inactive)
Nn1c(CNc2ccc(-c3nnc(Nc4ccc(Cl)cc4)n3N)cc2)nnc1Nc1ccc(Cl)cc1	> 100 µM (inactive)
CCCCC1c2c([nH]c3ccccc23)C2C(=O)N(c3ccc(OC)cc3)C(=O)C2C1CCC (configuration not stated)	2.6 µM (inactive)
CCN(CC)Cc1cc(Nc2ccnc3ccc4c(nnn4C)c23)ccc1O	6.82 µM (inactive)

Data request: Field request: GI50 | item: COc1ccc(-c2cc(=O)c3c(O)cc(C)cc3o2)cc1OC
Data returned: > 100 µM (inactive)

Data request: Field request: GI50 | item: O=C1N/C(=N/N=C/c2ccccc2)N/C1=C\c1c[nH]c2ccccc12
Data returned: 22.6 µM (inactive)

Data request: Field request: GI50 | item: COC(=O)C1CCCCNC(=O)CCC(NC(=O)OCc2ccccc2)C(=O)N1 (stereo not drawn) (Cbz-Glu-Lys-OMe; lactam 1-2; configuration not given here)
Data returned: > 100 µM (inactive)

Data request: Field request: GI50 | item: Cc1cc(Cl)ccc1OCC(=O)Oc1c(Cl)c(Cl)c(Cl)c(Cl)c1Cl
Data returned: 28.2 µM (inactive)

Data request: Field request: GI50 | item: O=C1c2ccccc2S(=O)(=O)c2c1cccc2[N+](=O)[O-]
Data returned: 3.01 µM (inactive)

Data request: Field request: GI50 | item: O=C1CCC(=O)N1CNc1ccc2c(c1)Sc1ccccc1O2
Data returned: 32 µM (inactive)

Data request: Field request: GI50 | item: C=CCn1c(S)nnc1C12CC3CC(CC(C3)C1)C2
Data returned: 32.7 µM (inactive)

Data request: Field request: GI50 | item: CC1(C)C(=O)C2(C#N)CCC1C2 (configuration not stated)
Data returned: > 100 µM (inactive)

Data request: Field request: GI50 | item: CCOP(=O)(OCC)C(Nc1cccc([N+](=O)[O-])c1)c1ccccc1 (configuration not stated)
Data returned: 38.6 µM (inactive)

Data request: Field request: GI50 | item: O=C(C[N+]12CN3CN(CN(C3)C1)C2)c1ccc(-c2ccccc2)cc1
Data returned: 16 µM (inactive)

Data request: Field request: GI50 | item: O=C(O)CSCC(=O)Nc1ccc2cccc3c2c1CC3
Data returned: > 100 µM (inactive)

Data request: Field request: GI50 | item: CCOC(=O)/C(=C\c1cccc(C)c1)C(C)=O
Data returned: 10.5 µM (inactive)
